System: LPS-induced neutrophil accumulation in Balb/c mice
experimental details: LPS-induced neutrophil accumulation in mice
Assay type: in vivo
measurement conditions: 0.2 mg/mL intra tracheal, 8 h pre-dose before LPS
quantity kind: % inhibition of Influx (%)
Give bare numbers, in %.

Recorded % inhibition of Influx, per entry:
# molecule smiles, system name, % inhibition of Influx [%]
data = [
    ("CN(C)C(=O)Nc1cc(Oc2ccc(NC(=O)Nc3cc(C(C)(C)C)nn3-c3ccc(O)cc3)c3ccccc23)ccn1", "LPS-induced neutrophil accumulation in Balb/c mice", 14),
    ("COCC(=O)Nc1cc(Oc2ccc(NC(=O)Nc3cc(C(C)(C)C)nn3-c3ccc(OC)nc3)c3ccccc23)ccn1", "LPS-induced neutrophil accumulation in Balb/c mice", 55),
]

Count: 2. Required value per item: % inhibition of Influx.
1. COCC(=O)Nc1cc(Oc2ccc(NC(=O)Nc3cc(C(C)(C)C)nn3-c3ccc(CO)c(Cl)c3)c3ccccc23)ccn1
2. CC(C)(C)c1cc(NC(=O)Nc2ccc(Oc3ccnc(NC(N)=O)c3)c3ccccc23)n(-c2ccc(S(C)(=O)=O)cc2)n1

A.
[43, 24]

* * *

system name: p38 MAPKα isoform (MAPK14: Invitrogen) (Homo sapiens)
Sequence (Q16539 whole entry, canonical isoform): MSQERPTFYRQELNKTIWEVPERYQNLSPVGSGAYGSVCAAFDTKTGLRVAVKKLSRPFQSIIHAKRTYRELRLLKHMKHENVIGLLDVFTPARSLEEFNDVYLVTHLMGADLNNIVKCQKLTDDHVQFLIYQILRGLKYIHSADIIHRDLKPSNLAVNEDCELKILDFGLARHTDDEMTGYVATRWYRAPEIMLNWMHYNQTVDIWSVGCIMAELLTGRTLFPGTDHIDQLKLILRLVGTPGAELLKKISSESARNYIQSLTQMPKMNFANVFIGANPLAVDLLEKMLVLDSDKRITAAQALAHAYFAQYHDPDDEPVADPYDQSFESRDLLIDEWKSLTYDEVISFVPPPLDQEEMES
experimental details: p38 MAPKα enzyme inhibition assay (FRET, Z-LYTE, via MAPKAP-K2 activation)
measurement conditions: 2 hr pre-incubation, ATP 10.0 μM; read-out: Enzyme Inhibition IC50 p38α
quantity kind: pIC50
Answers are plain numbers, as −log10 of the molar value.

# molecule smiles, pIC50
records = [
    ("COCC(=O)Nc1cc(Oc2ccc(NC(=O)Nc3cc(C(C)(C)C)nn3-c3ccc(N)cc3)c3ccccc23)ccn1", 9.05),
    ("CC(C)(C)c1cc(NC(=O)Nc2ccc(Oc3ccnc(NC(=O)N4CCCC4)c3)c3ccccc23)n(-c2ccc(O)cc2)n1", 7.95),
    ("COCC(=O)Nc1cc(Oc2ccc(NC(=O)Nc3cc(C(C)(C)C)nn3-c3ccc(CO)c(OC)c3)c3ccccc23)ccn1", 7.92),
    ("COCCOCC(=O)Nc1cc(C(=O)c2ccc(NC(=O)Nc3cc(C(C)(C)C)nn3-c3ccc(C)cc3)c3ccccc23)ccn1", 7.85),
    ("COCC(=O)Nc1cc(Oc2ccc(NC(=O)Nc3cc(C(F)(F)F)nn3-c3ccc(C)cc3)c3ccccc23)ccn1", 8.11),
]

Count: 2. Required value per item: pIC50.
1. COCC(=O)Nc1cc(Oc2ccc(NC(=O)Nc3cc(C4(C)CC4)nn3-c3ccc(C)cc3)c3ccccc23)ccn1
2. COCC(=O)Nc1cc(COc2ccc(NC(=O)Nc3cc(C(C)(C)C)nn3-c3ccc(OC)cc3)c(C)c2C)ccn1

A.
8.47
7.90

* * *

Tested on: Differentiated U937 cells
experimental details: MTT assay: cell viability on exposure to test compounds
Type: cell-based, human
measurement conditions: percentage loss of cell viability vs vehicle; 1 μg/mL, 4 hr, 5% FCS
quantity kind: MTT Assay (Viability) 4 h d-U937 (%)
One number for each entry, in %.

Count: 2. Required value per item: MTT Assay (Viability) 4 h d-U937.
1. COCC(=O)Nc1cc(Oc2ccc(NC(=O)Nc3cc(C(C)(C)C)nn3-c3ccc(OC(F)(F)F)cc3)c3ccccc23)ccn1
2. COCC(=O)Nc1cc(Oc2ccc(NC(=O)Nc3cc(C(C)(C)C)nn3-c3ccc(SC)cc3)c3ccccc23)ccn1

A.
1. −26.2
2. −4.0

Count: 7. Required value per item: MTT Assay (Viability) 4 h d-U937.
1. CC(C)(C)c1cc(NC(=O)Nc2ccc(Oc3ccnc(NC(=O)N4CCOCC4)c3)c3ccccc23)n(-c2ccc(S(C)(=O)=O)cc2)n1
2. CN1CCN(C(=O)Nc2cc(Oc3ccc(NC(=O)Nc4cc(C(C)(C)C)nn4-c4ccc(S(C)(=O)=O)cc4)c4ccccc34)ccn2)CC1
3. COCC(=O)Nc1cc(Oc2ccc(NC(=O)Nc3cc(C(C)(C)C)nn3-c3ccc(Cl)cc3)c3ccccc23)ccn1
4. COCC(=O)Nc1cc(Oc2ccc(NC(=O)Nc3cc(-c4ccccc4)nn3-c3ccccc3)c3ccccc23)ccn1
5. COCC(=O)Nc1cc(Oc2ccc(NC(=O)Nc3cc(C(C)(C)C)nn3-c3ccc(O)cc3)c3ccccc23)ccn1
6. COCC(=O)Nc1cc(Oc2ccc(NC(=O)Nc3cc(C(C)(C)C)nn3-c3ccc(C(=O)OC)cc3)c3ccccc23)ccn1
7. COCC(=O)Nc1cc(Oc2ccc(NC(=O)Nc3cc(C45CC6CC(CC(C6)C4)C5)nn3-c3ccc(C)cc3)c3ccccc23)ccn1

A.
−15.9
−16.1
−10.7
−1.7
4.5
−12.8
−4.6
